- TEST TARGET: ATP-dependent Clp protease proteolytic subunit (Bacillus subtilis (strain 168)) (UniProt P80244)
- EXPERIMENT DESCRIPTION: qHTS Assay for Activators of ClpP; further: the source files actives as falling curves though it sought activators and does not explain the sign; nearly all actives have a fitted effect of over 65% in size
- ASSAY CONDITIONS: purified B. subtilis ClpP, FRET peptide cleavage, 20 min; series mostly up to 57.5 µM
- Source text: The Clp protease proteolytic subunit (ClpP) is the core unit of the Clp complex belonging to the peptidase family S14 that hydrolyzes protein into small peptides in the presence of ATP and magnesium. It is ubiquitously expressed and is the major protease in bacteria. […] Unlike common antibiotics that simply interfere with the essential enzyme activity, ADEP binding activates the ClpP core in the absence of the regulatory Clp-ATPases leading to uncontrolled proteolysis and eventually cell death. […]
The campaign covered roughly 340,000 compounds. About 6,400 (1.9%) were called active. Inconclusive results (about 4%) are left out. The call rests on the fitted dose curve; in most records, active means well fitted falling curve with a large enough effect; inconclusive means small, poorly fitted or top-dose-only effect; inactive means no such curve, though single readings can be large or run the other way. The entries come from a sample that favours actives as a whole.
Hello, when you answer, please use one of the following outcomes: active, inactive

Before answering, review these 10 worked examples.
[[record]]
molecule = "CC1(c2ccccc2)CC(C)(C)N(C(=O)c2cc([N+](=O)[O-])cc([N+](=O)[O-])c2)c2ccccc21 (stereo unspecified)"
class_name = "inactive"

[[record]]
molecule = "O[C@H]1C[C@H](c2ccc(Cl)cc2)N(Cc2cccs2)C[C@@H]1n1cc(C2CC2)nn1"
class_name = "inactive"

[[record]]
molecule = "COC(=O)[C@@]12C[C@@H](CC(=O)NCCCCc3ccccc3)C(=O)N(Cc3ccccc3)C1=CCC(C)(C)C2"
class_name = "inactive"

[[record]]
molecule = "COC(=O)c1c(NC(=O)CSc2nncs2)sc2c1CCCCC2"
class_name = "inactive"

[[record]]
molecule = "CC(=O)NC(c1cccc(F)c1)c1nc(-c2cccc(F)c2)cs1 (stereo unspecified)"
class_name = "inactive"

[[record]]
molecule = "c1ccc2[nH]c(-c3nc4ccccc4[nH]3)nc2c1"
class_name = "active"

[[record]]
molecule = "Cc1ccc(Sc2ccc(NC(=O)c3ccc(F)cc3)cc2C#N)cc1"
class_name = "inactive"

[[record]]
molecule = "Cc1cccc(-c2cnc(C(O)c3cc(C)cc(C)c3)[nH]2)c1 (stereo unspecified)"
class_name = "inactive"

[[record]]
molecule = "CCOC(=O)c1c(NC(=O)c2ccc(Br)o2)sc2c1CCCC2"
class_name = "active"

[[record]]
molecule = "NC(c1ccccc1)c1csc(NC(=O)Nc2cccc(C(F)(F)F)c2)n1 (stereo unspecified)"
class_name = "inactive"


### Prompt Which outcome was assigned to CC1(C)OC(=O)C2=C(C[C@@H](C3CC3)O[C@H]2CCc2cccc(Cl)c2)O1 in this test?
### Response inactive

### Prompt So what was the verdict on COc1ccc(OCCCCN2CCC(C)CC2)cc1 in this test?
### Response inactive

### Prompt What outcome does the record of this test show for CCOC(=O)c1c(NC(=O)c2ccc(S(=O)(=O)N(CC)CC)cc2)sc2c1CCCCC2 ?
### Response inactive

### Prompt Test call for this molecule, please: COc1ccc(NC(=O)CSc2nc3ccccc3[nH]2)cc1
### Response inactive

### Prompt How was CC(=O)Nc1cc(C(=O)NCc2ccc(F)cc2)ccc1Sc1ccc(F)cc1 classified in this test?
### Response inactive

### Prompt Record lookup: outcome of this test for COC(=O)[C@]12CCCCC=C1N(CCC1=CCCCC1)C(=O)[C@H](CC(=O)NCC1CCCCC1)C2 ?
### Response inactive

### Prompt Given COC(=O)c1c(NC(=O)c2ccc(Cl)c(Cl)c2)sc2c1CCCC2 , state the outcome it received in this test.
### Response inactive

### Prompt Could you check what this test reported for Oc1ccc(-c2[nH]ncc2-c2nc3ccccc3s2)c(O)c1 ?
### Response inactive

### Prompt Can you look up the reported call for CC1(c2cccc([N+](=O)[O-])c2)CC(C)(C)N(C(=O)c2ccccc2)c2ccccc21 (stereo unspecified) for me?
### Response inactive

### Prompt Identify the outcome logged in this assay for the molecule shown: c1ccc(-c2[nH]ncc2-c2nc3ccccc3[nH]2)cc1
### Response active

### Prompt Hey, what did the test say about Cc1nn(-c2ccccn2)c2c1C(c1ccncc1)C1=C(CC(C)(C)CC1=O)N2 (stereo unspecified) ?
### Response active
